Where these numbers come from: PubChem BioAssay

- Test summary: JC-1 mitochondrial signal, unstimulated myeloma cells – cell-based, JC-1 fluorescence, RPMI8226, 24 h, 100 nL compound, profiling panel (AID 1169); further: test concentration not given here
- Test context: JC-1 mitochondrial potential fluorescence, higher = more signal
Reported z-score values for the following compounds.
Would you mind answering with just the numeric figure?

Compound | z-score
[N-]=[N+]=Nc1ccccc1[C@H]1OC(c2ccc(OCCCO)cc2)=N[C@@]1(CCS(=O)(=O)c1ccccc1)C(=O)N1CCOCC1 | -0.666
C#C[C@H](O[Si](C#CCCCCCC)(C(C)C)C(C)C)c1ccccc1 | 0.179
O=C1O[C@H](c2ccccc2)[C@H](c2ccccc2)N2[C@H]1[C@@H](C(=O)NC[C@H](O)c1ccccc1)[C@]1(C(=O)Nc3ccc(C#CC4=CCCCC4)cc31)[C@H]2c1ccc(O)cc1 | -0.87

Request: z-score for COC(=O)C(CC#Cc1ccc2c(c1)[C@]1(C(=O)N2)[C@H](C(=O)N2CCCCCCC2)[C@H]2C(=O)O[C@H](c3ccccc3)[C@H](c3ccccc3)N2[C@@H]1c1ccccc1OCCO)C(=O)OC ?
Response: -0.835
